Study system: UniProtKB P48730
Sequence (P48730 whole entry): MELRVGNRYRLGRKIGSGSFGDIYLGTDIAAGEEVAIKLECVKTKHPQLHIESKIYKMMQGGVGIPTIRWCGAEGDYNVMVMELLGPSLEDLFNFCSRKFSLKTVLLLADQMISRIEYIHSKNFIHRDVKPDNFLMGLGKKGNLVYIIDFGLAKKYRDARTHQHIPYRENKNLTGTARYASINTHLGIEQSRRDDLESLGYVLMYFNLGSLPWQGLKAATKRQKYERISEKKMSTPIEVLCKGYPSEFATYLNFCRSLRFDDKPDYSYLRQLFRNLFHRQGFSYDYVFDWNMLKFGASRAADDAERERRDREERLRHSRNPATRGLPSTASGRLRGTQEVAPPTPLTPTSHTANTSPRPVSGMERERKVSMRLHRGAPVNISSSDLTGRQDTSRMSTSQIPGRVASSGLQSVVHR
Protocol: CK1δ inhibition IC50
Assay type: biochemical
Run conditions: Table 3; read-out: CK1 d IC50
pIC50: −log10 of the molar value.
Observable: pIC50

CC1(C)CN(c2ccc3nc(-c4ccc(F)cc4)c(-c4ccncc4)n3n2)CCN1 | 7.73
Nc1nccc(-c2c(-c3ccc(F)cc3)ncn2C2CCN(Cc3ccon3)CC2)n1 [PF-5006739, reference compound] | 7.70

---

Study system: UniProtKB P48730
Protocol: CK1δ inhibition IC50
Format: biochemical
Run conditions: Table 6; read-out: IC50 CK1δ
Observable: IC50 (nM)

a: Cn1cc(-c2ccncc2)c(-c2ccc(F)cc2)n1 [Nr. 17]
b: Cn1cc(-c2ccnc3[nH]ccc23)c(-c2ccc(F)cc2)n1 [Nr. 16]
c: Fc1ccc(-c2nc3ccc(N4CCOCC4)nn3c2-c2ccncc2)cc1 [Nr. 23]
Qu. Ranking field: IC50; order: falling. Please express your ranking as an ordered list of the labels.
Ans. c, a, b

All figures here come from patent US20220226340A1.
